Origin of measurements: ChEMBL document CHEMBL1141244

# key: entry, value: pIC50
# TARGET_OR_TEST_SYSTEM: Beta-amylase (Hordeum vulgare, UniProt P16098)
# Sequence (P16098 whole entry): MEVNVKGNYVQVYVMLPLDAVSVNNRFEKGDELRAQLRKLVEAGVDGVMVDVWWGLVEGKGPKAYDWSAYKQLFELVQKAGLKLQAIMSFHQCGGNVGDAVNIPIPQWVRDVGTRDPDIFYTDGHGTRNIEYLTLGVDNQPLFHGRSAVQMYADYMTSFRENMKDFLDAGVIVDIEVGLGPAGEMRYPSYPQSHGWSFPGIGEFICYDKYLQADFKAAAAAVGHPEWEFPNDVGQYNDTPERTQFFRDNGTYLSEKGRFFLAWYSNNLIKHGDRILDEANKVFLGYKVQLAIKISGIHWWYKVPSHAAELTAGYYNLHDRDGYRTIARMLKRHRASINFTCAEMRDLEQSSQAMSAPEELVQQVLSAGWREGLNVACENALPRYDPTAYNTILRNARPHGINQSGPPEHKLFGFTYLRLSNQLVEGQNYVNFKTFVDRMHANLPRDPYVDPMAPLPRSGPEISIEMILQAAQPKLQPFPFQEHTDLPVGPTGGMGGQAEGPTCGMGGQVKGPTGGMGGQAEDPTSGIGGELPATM
# ASSAY_REMARKS: Inhibitory activity against barley beta amylase
# CONDITIONS: read-out: IC50
pIC50: −log10 of the molar value.

{"columns": ["SMILES_STRING", "pIC50"],
 "data": [
  ["Nc1cccc(C(=O)/C=C/c2ccc(O)cc2)c1", 3.69],
  ["Nc1ccc(C(=O)/C=C/c2ccc(O)c(O)c2)cc1", 3.90],
  ["Cc1ccc(S(=O)(=O)Nc2cccc(C(=O)/C=C/c3ccc(O)c(O)c3)c2)cc1", 4.61],
  ["Cc1ccc(S(=O)(=O)Nc2ccc(C(=O)/C=C/c3ccc(O)c(O)c3)cc2)cc1", 4.19],
  ["Cc1ccc(S(=O)(=O)Nc2cccc(C(=O)/C=C/c3ccc(O)cc3)c2)cc1", 3.70],
  ["Cc1ccc(S(=O)(=O)Nc2ccc(C(=O)/C=C/c3ccc(O)cc3)cc2)cc1", 3.61]
]}

* * *

# TARGET_OR_TEST_SYSTEM: Beta-amylase (Hordeum vulgare)
# ASSAY_REMARKS: Inhibitory activity against barley beta amylase at 200 uM
The source made the active and inactive calls. The calls are words filed in the database; no cut-off is given here.

{"columns": ["SMILES_STRING", "Activity"],
 "data": [
  ["O=c1c(O)c(-c2cc(O)c(O)c(O)c2)oc2cc(O)cc(O)c12", "inactive"],
  ["O=C(/C=C/c1ccc(O)cc1)c1ccccc1", "inactive"],
  ["Oc1cc(O)c2c(c1)O[C@H](c1ccc(O)c(O)c1)[C@@H](O)C2", "inactive"],
  ["Oc1cc(O)c2c(c1)O[C@@H](c1ccc(O)c(O)c1)[C@H](O)C2", "inactive"],
  ["O=C(/C=C/c1ccc(O)cc1)c1ccc(O)cc1", "inactive"],
  ["O=C(/C=C/c1ccccc1O)c1ccccc1", "inactive"]
]}

* * *

# ASSAY_REMARKS: Inhibitory activity against baker's yeast alpha glucosidase
# Design: species or system Saccharomyces cerevisiae
Property: IC50; scope: individual molecules

{"columns": ["MOLECULE", "UNIT_LABEL", "RELATION_SYMBOL", "IC50"],
 "data": [
  ["Cc1ccc(S(=O)(=O)Nc2ccc(C(=O)/C=C/c3ccc(O)c(O)c3)cc2)cc1", "µM", "=", 0.4],
  ["Cc1ccc(S(=O)(=O)Nc2ccc(C(=O)/C=C/c3ccc(O)cc3)cc2)cc1", "µM", "=", 0.98],
  ["Nc1cccc(C(=O)/C=C/c2ccc(O)cc2)c1", "µM", ">", 200],
  ["Cc1ccc(S(=O)(=O)Nc2cccc(C(=O)/C=C/c3ccc(O)cc3)c2)cc1", "µM", "=", 12.4],
  ["Cc1ccc(S(=O)(=O)Nc2cccc(C(=O)/C=C/c3ccc(O)c(O)c3)c2)cc1", "µM", "=", 15.6],
  ["Nc1ccc(C(=O)/C=C/c2ccc(O)cc2)cc1", "µM", "=", 41],
  ["C[C@H]1O[C@H](O[C@H]2[C@H](O)[C@@H](O)[C@@H](O[C@H]3[C@H](O)[C@@H](O)C(O)O[C@@H]3CO)O[C@@H]2CO)[C@H](O)[C@@H](O)[C@@H]1N[C@H]1C=C(CO)[C@@H](O)[C@H](O)[C@H]1O (some centres undefined)", "µM", "=", 60.8],
  ["Nc1cccc(C(=O)/C=C/c2ccc(O)c(O)c2)c1", "µM", ">", 200],
  ["Nc1ccc(C(=O)/C=C/c2ccc(O)c(O)c2)cc1", "µM", "=", 62.1]
]}
